test system: HPPD polypeptides; assay: coupled HPPD activity assay: turnover and residual turnover in crude extracts; type: biochemical, Pseudomonas fluorescens; details: 100 μM Cmpd. 1; signal change with inhibitor divided by signal change without inhibitor
Measurement Type: Residual turnover [%] (%)
Value expressed in %; do not type the unit.

Lab note: measured Residual turnover [%] of 51 (protein, mutant HPPD polypeptide) MADLYENPMGLMGFEFIEFASPTPGTLEPIFEIMGFTKVATHRSKNVHLYRQGEINLILNNEPNSIASYFAAEHGPSVCGMAFRVKDSQKAYNRALELGAQPIHIDTGPMELNLPAIKGIGGAPLYLIDRFGEGSSIYDIDFVYLEGVERNPVGAGLKVIDHLTHNVYRGRMVYWANFYEKLFNFREARYFDIKGEYTGLTSKAMSAPDGMIRIPLNEESSKGAGQIEEFLMQFNGEGIQHVAFLTDDLVKTWDALKKIGMRFMTAPADNYYEMLEGRLPDHGEPVDQLQARGILLDGSSVEGDKRLLLQIFSETLMGPVFFEFIQRKGDDGFGPDSFKVLFESKERDQVRRGVLTAD was 56

Value of Residual turnover [%] reported for the molecule 17 (protein, mutant HPPD polypeptide) MADLYENPMGLMGFEFIEFASPTPGTLEPIFEIMGFTKVATHRSKNVHLYRQGEINLILNNEPNSIASYFAAEHGPSVCGMAFRVKDSQKAYNRALELGAQPIHIDTGPMELNLPAIKGIGGAPLYLIDRFGEGSSIYDIDFVYLEGVERNPVGAGLKVIDHLTHNVYRGRMVYWANFYEKLFNFREARYFDIKGEYTGLTSKAMSAPDGMIRIPLNEESSKGAGQIEEFLMQFNGEGIQHVAFLTDDLVKTWDALKKIGMRFMTAPADEYYEMLEGRLPDHGEPVDQLQARGILLDGSSVEGDKRLLLQIFSETLMGPVFFEFIQRKGDDGFGPDSFKVLFESVERDQVRRGVLTAD is 59

The molecule listed as 7 (protein, mutant HPPD polypeptide) MADLYENPMGLMGFEFIEFASPTPGTLEPIFEIMGFTKVATHRSKNVHLYRQGEINLILNNEPNSIASYFAAEHGPSVCGMAFRVKDSQKAYNRALELGAQPIHIDTGPMELNLPAIKGIGGAPLYLIDRFGEGSSIYDIDFVYLEGVERNPVGAGLKVIDHLTHNVYRGRMVYWANFYEKLFNFREARYFDIKGEYTGLTSKAMSAPDGMIRIPLNEESSKGAGQIEEFLMQFNGEGIQHVAFLTDDLVKTWDALKKIGMRFMTAPGDNYYEMLEGRLPDHGEPVDQLQARGILLDGSSVEGDKRLLLQIFSETLMGPVFFEFIQRKGDDGFGPDSFKVLFESIERDQVRRGVLTAD has a reported Residual turnover [%] of 42
